Provenance of the data: ChEMBL document CHEMBL3507680

experiment: Human HepG2 cell viability assay in 384 well format; type: toxicity, cell-based; set-up: dose 125 nL, time 70.5 hour; concentration not given beside the values; details: HepG2 cells, read-out: Inhibition
cytotoxicity at 70.5 h reference
Express the result in % but write the number alone.

[ask] Could you tell me which cytotoxicity at 70.5 h is on file for "Cn1nccc1C(=O)Nc1cc(C(F)(F)F)c[nH]c1=O" ?
[reply] -6.13

[ask] Could you tell me which cytotoxicity at 70.5 h is on file for "O=C(c1ccco1)N1CCC(n2cc(-c3ccsc3)nn2)CC1" ?
[reply] -5.81

---

assay: Human HepG2 cell viability assay in 384 well format; type: toxicity, cell-based; parameters: dose 125 nL, time 70.5 hour; concentration not given beside the values; details: HepG2 cells, read-out: Inhibition
cytotoxicity at 70.5 h reference
Express the result in % but write the number alone.

Sample answers from the record:
Cc1cccc(SC2CCN(C(=O)CCNS(C)(=O)=O)CC2)c1    -13.1
Cc1ccc(-c2ccsc2C(=O)NC2CCS(=O)(=O)C2)cc1 (stereo unspecified)    -3.7
Nc1nc(C2CCN(C(=O)c3cncs3)CC2)cs1    -2.63

[ask] Could you tell me which cytotoxicity at 70.5 h is on file for CCC(O)CN1CCN(C(=O)c2cnn(-c3ccccc3F)c2)CC1 (stereo unspecified) ?
[reply] 2.94

[ask] Could you tell me which cytotoxicity at 70.5 h is on file for CNC(=O)c1cccc(NC(=O)NC(C)c2cc(C)oc2C)c1C (stereo unspecified) ?
[reply] -8.35

[ask] Could you tell me which cytotoxicity at 70.5 h is on file for Cc1cc(C(=O)N2CCCC(c3cc(C(F)(F)F)[nH]n3)C2)[nH]n1 (stereo unspecified) ?
[reply] 3.57
